Data credit: paper PMC5567870

Molecular target: RGS17 (Homo sapiens, UniProt Q9UGC6)
Sequence (Q9UGC6 72-206 limits assumed): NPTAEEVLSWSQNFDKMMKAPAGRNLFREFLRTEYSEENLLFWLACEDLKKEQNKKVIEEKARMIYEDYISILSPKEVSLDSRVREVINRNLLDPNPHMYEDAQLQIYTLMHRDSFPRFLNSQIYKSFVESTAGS
Assay: Isothermal titration calorimetry
Format: binding

molecule: C[n+]1cc2c3c(ccc2c2ccc4cc5c(cc4c21)OCO5)OCO3 [compound 1, sanguinarine]
unit of measurement: nM
Kd: 1000
